- procedure_summary: n-Octanol/PBS distribution coefficient (log D7.4)
measured_quantity: logD
Number only, please.

Inquiry: Quick one: logD for C[C@@H](O)[C@H](NC(=O)[C@@H]1CSSC[C@H](NC(=O)[C@@H](Cc2ccccc2)NC(=O)COCCOCCNC(=O)[C@H](Cc2cn(-c3ccc(C(=O)N[C@@H](CCCCNC(=O)CCCc4ccc(F)cc4)C(N)=O)cc3)nn2)NC(=O)CC[C@H](C(=O)O)N2CCN(CC(=O)O)CCN(CC(=O)O)CC2)C(=O)N[C@@H](Cc2ccc(O)cc2)C(=O)N[C@H](Cc2c[nH]c3ccccc23)C(=O)N[C@@H](CCCCN)C(=O)N[C@@H]([C@@H](C)O)C(=O)N1)C(=O)O [[64Cu]Cu-NODAGA-cLAB5-TATE, metal not drawn] ?
Reply text: -2.27
